# System: MDA-MB-231 breast cancer cells
# Assay Details: MTT assay on MDA-MB-231 cells
# Type: cell-based
# Reported Conditions: Homo sapiens, MDA-MB-231, 48 h, read-out: IC50 after 48 h in µg/mL
Binary label based on IC50 with cut-off 7 µg/mL: below gives label 1, not below gives label 0.

[
  {
    "Compound": "COc1cccc2c1C(=O)c1c(O)c3c(c(O)c1C2=O)C[C@@](O)(C(=O)CO)C[C@@H]3O[C@H]1C[C@H](N)[C@H](O)[C@H](C)O1 [Doxorubicin, reference compound]",
    "Label Value": "label 1"
  },
  {
    "Compound": "O=c1c2cc(Cl)ccc2nc(SCc2ccc(C(F)(F)F)cc2)n1-c1ccc(F)cc1",
    "Label Value": "label 0"
  },
  {
    "Compound": "O=c1c2cc(Cl)ccc2nc(S)n1-c1ccc(F)cc1",
    "Label Value": "label 0"
  },
  {
    "Compound": "CC(C)=CCSc1nc2ccc(Cl)cc2c(=O)n1-c1ccc(F)cc1",
    "Label Value": "label 1"
  },
  {
    "Compound": "O=C1c2ccccc2C(=O)N1CSc1nc2ccc(Cl)cc2c(=O)n1-c1ccc(F)cc1",
    "Label Value": "label 0"
  },
  {
    "Compound": "CCSc1nc2ccc(Cl)cc2c(=O)n1-c1ccc(F)cc1",
    "Label Value": "label 1"
  },
  {
    "Compound": "O=c1c2cc(Cl)ccc2nc(SCc2ccc(Cl)cc2)n1-c1ccc(F)cc1",
    "Label Value": "label 1"
  },
  {
    "Compound": "O=c1c2cc(Cl)ccc2nc(SCc2ccc(Br)cc2F)n1-c1ccc(F)cc1",
    "Label Value": "label 0"
  },
  {
    "Compound": "O=c1c2cc(Cl)ccc2nc(SCc2cc(C(F)(F)F)cc(C(F)(F)F)c2)n1-c1ccc(F)cc1",
    "Label Value": "label 0"
  },
  {
    "Compound": "N#Cc1ccc(CSc2nc3ccc(Cl)cc3c(=O)n2-c2ccc(F)cc2)cc1",
    "Label Value": "label 0"
  },
  {
    "Compound": "O=c1c2cc(Cl)ccc2nc(SCc2ccc(F)cc2)n1-c1ccc(F)cc1",
    "Label Value": "label 1"
  },
  {
    "Compound": "O=c1c2cc(Cl)ccc2nc(SCc2ccc([N+](=O)[O-])cc2)n1-c1ccc(F)cc1",
    "Label Value": "label 0"
  }
]
